# TGT: BTK (phospho-BTK) in human whole blood (Homo sapiens)
# Sequence (Q06187 whole entry): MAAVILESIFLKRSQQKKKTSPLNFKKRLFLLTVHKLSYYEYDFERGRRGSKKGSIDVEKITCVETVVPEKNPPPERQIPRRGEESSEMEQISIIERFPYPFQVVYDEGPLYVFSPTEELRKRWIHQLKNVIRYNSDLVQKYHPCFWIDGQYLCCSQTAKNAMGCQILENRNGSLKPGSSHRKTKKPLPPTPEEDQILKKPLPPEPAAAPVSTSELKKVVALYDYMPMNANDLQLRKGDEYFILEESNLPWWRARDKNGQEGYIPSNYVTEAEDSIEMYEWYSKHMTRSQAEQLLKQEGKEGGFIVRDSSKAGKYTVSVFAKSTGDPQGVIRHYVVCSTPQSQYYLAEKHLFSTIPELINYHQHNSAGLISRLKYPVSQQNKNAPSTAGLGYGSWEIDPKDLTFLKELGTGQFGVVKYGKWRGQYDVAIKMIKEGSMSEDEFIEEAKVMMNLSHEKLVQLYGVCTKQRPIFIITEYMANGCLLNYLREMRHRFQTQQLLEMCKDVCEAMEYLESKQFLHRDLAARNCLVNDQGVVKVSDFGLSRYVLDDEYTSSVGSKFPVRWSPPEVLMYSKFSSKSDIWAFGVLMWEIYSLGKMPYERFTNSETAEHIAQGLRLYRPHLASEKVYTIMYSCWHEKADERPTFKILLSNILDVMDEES
# PROTOCOL SUMMARY: In vitro PD assay in human whole blood (pBTK assay)
ASSAY ENDPOINT: IC50

Observe how each entry below is paired with its result.
Cc1cc(-c2cc(Nc3ccc4c(n3)CCNC4)ncn2)ccc1CNC(=O)c1cnc(C(C)(C)C)s1 [Example I-266]
< 500 nM
Cc1cc(-c2ccnc(Nc3cnn(C[C@H](N)CO)c3)n2)ccc1CNC(=O)c1cnc(C(C)(C)C)s1 [Example I-131]
500 to 1500 nM
Cc1cc(-c2ccnc(Nc3cnn(C)c3)n2)ccc1CNC(=O)c1cc2c(s1)CCNC2 [Example I-2]
500 to 1500 nM

Next up:
Q: Report IC50, nothing else, for this compound: Cn1cc(Nc2nccc(-c3ccc(CNC(=O)N4CCC(C(C)(C)C)C4)c(C#N)c3)n2)cn1 (stereo not shown) [Example I-210]
Result: < 500 nM

====

# TGT: BTK (phospho-BTK) in human whole blood (Homo sapiens)
# PROTOCOL SUMMARY: In vitro PD assay in human whole blood (pBTK assay)
pIC50: −log10 of the molar value.
ASSAY ENDPOINT: pIC50

Cc1cc(-c2ccnc(N)n2)ccc1CNC(=O)c1cnc(C(C)(C)C)s1
5.00 to 5.82
COC1CN(C(=O)NC2CCCCc3cc(-c4ccnc(Nc5cnn(C)c5)n4)ccc32)C1 (stereo not drawn)
> 6.30
Cn1cc(Nc2nccc(-c3ccc4c(c3)CCCCC4NC(=O)N3CC(OC(C)(C)C)C3)n2)cn1 (stereo not drawn)
> 6.30
CCn1cc(Nc2nccc(-c3ccc(CNC(=O)N4CC(OC(C)(C)C)C4)c(C(F)(F)F)c3)n2)cn1
> 6.30
CC(C)OC1CN(C(=O)NC2CCCCc3cc(-c4ccnc(Nc5cnn(CC(C)(C)O)c5)n4)ccc32)C1 (stereo not drawn)
> 6.30
CC(C)(C)C1CCN(C(=O)NC2CCCc3cc(-c4ccnc(Nc5cnn(CCO)c5)n4)ccc32)C1 (stereo not drawn)
> 6.30

Q: Report pIC50, nothing else, for this compound: Cc1cc(-c2ccnc(N)n2)ccc1CNC(=O)c1cc2c(s1)CCCC2
Result: 5.00 to 5.82

Q: Report pIC50, nothing else, for this compound: CNC(=O)C(C)(C)n1cc(Nc2nccc(-c3ccc(CNC(=O)N4CC(OC(C)C)C4)c(C)c3)n2)cn1
Result: > 6.30

Q: Report pIC50, nothing else, for this compound: Cc1cc(-c2cc(Nc3cc4c(cn3)CN(C)CC4)ncn2)ccc1CNC(=O)c1cnc(C(C)(C)C)s1
Result: > 6.30

Q: Report pIC50, nothing else, for this compound: CCn1cc(Nc2nccc(-c3ccc(CNC(=O)c4cnc(C(C)(C)C)s4)c(C)c3)n2)cn1
Result: > 6.30

Q: Report pIC50, nothing else, for this compound: Cc1cc(-c2ccnc(Nc3cnn(C)c3)n2)ccc1CNC(=O)c1cc2c(s1)CCOC2
Result: 5.00 to 5.82

Q: Report pIC50, nothing else, for this compound: Cc1cc(-c2cc(Nc3cc4n(n3)CCOC4)ncn2)ccc1CNC(=O)N1CC(OC(C)(C)C)C1
Result: > 6.30

Q: Report pIC50, nothing else, for this compound: Cc1cc(-c2ccnc(Nc3cnn(C)c3)n2)ccc1CNC(=O)N1CCC(C(C)(C)C)CC1
Result: 5.82 to 6.30

Q: Report pIC50, nothing else, for this compound: CN1CC(n2cc(Nc3nccc(-c4ccc(CNC(=O)N5CC(OC(C)(C)C)C5)c(C(F)(F)F)c4)n3)cn2)C1
Result: > 6.30

Q: Report pIC50, nothing else, for this compound: CC(C)OC1CN(C(=O)NC2CCN(C=O)Cc3cc(-c4ccnc(Nc5cnn(C)c5)n4)ccc32)C1 (stereo not drawn)
Result: > 6.30
